meta.source: ChEMBL document CHEMBL1143080

Assign pIC50 to each entry below.
Schema: pIC50 number; meaning minus log10 of the concentration expressed in molar units.

Q: # return pIC50 of COc1ccc2oc(=O)c3c(ccc4[nH]c(=O)cc(C)c43)c2c1 (system: Androgen receptor (Homo sapiens))
Sequence (P10275 whole entry): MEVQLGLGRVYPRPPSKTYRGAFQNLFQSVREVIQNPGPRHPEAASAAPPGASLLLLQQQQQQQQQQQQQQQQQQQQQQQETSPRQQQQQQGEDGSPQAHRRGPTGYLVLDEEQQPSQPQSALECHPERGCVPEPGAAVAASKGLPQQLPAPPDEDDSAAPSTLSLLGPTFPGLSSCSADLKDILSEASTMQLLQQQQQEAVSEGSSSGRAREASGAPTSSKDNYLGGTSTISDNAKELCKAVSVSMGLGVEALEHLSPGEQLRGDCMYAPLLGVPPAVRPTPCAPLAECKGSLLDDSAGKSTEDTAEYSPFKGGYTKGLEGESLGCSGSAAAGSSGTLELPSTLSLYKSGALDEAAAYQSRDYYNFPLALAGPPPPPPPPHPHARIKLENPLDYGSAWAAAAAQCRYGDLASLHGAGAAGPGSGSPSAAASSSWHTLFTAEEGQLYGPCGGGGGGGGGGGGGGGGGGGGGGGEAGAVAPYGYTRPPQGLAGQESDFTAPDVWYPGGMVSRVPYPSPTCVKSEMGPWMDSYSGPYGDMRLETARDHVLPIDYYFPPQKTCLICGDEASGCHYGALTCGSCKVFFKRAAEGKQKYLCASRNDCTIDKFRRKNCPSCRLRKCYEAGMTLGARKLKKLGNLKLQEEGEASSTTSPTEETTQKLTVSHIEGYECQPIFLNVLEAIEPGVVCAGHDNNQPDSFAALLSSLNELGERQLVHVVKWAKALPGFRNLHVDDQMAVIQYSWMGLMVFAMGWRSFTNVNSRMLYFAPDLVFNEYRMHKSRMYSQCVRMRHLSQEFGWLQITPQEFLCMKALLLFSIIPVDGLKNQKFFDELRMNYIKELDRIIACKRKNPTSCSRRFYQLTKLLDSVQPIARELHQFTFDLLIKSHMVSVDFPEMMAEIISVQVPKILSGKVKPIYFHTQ
Result: 7.32

Q: // fetch pIC50 for COc1cccc2c1-c1ccc3[nH]c(=O)cc(C)c3c1C(C)O2 (stereo not given) ; system: Androgen receptor (Homo sapiens)
Result: 7.21

Q: Provide Androgen receptor (Homo sapiens) pIC50 reading for COc1cccc2c1-c1ccc3[nH]c(=O)cc(C(F)(F)F)c3c1OC2 .
Result: 7.11

Q: Answer briefly: pIC50 recorded on Androgen receptor (Homo sapiens) for C=CCC1Oc2cccc(OC)c2-c2ccc3[nH]c(=O)cc(C)c3c21 (stereo not given)
Result: 6.84

Q: Please respond with reported pIC50 (system Androgen receptor (Homo sapiens)) for COc1c(O)ccc2c1-c1ccc3[nH]c(=O)cc(C)c3c1CO2 .
Result: 7.72
